Source: a melting point compilation (Tetko et al.; mined from patent text by program, amines drawn as free bases though some values may be those of a salt)

Assign melting point to each entry below.

| compound | melting point |
| --- | --- |
| COc1cc(S(C)(=O)=O)ccc1-c1nc2cnccc2[nH]1 | 234 to 235 °C |
| [O-][N+]1=C(c2ccccc2)c2cc(Cl)ccc2CCC1 | 120 to 125 °C |
| CCC1(Br)Cc2cc(OCC(=O)O)c(Cl)c(Cl)c2C1=O (stereo not given) | 189 to 191 °C |

Please give melting point for each item listed below.
1. CCCc1nn(-c2ccc(C(F)(F)F)cn2)cc1CCCOc1ccc(OC)c(CCC(=O)O)c1
2. Cc1ccc(C2(C=O)C3CC4CC(C3)CC2C4)cc1 (stereo not given)

Reply:
1: 104 to 106 °C; 2: 93 to 97 °C
